Data provenance: PubChem BioAssay (NCI)

The following compounds are listed with their measured growth inhibition values.
assay: NCI Yeast Anticancer Drug Screen. Data for the mec2-1 strain (AID 157); conditions: S. cerevisiae mec2-1 strain, at 50.0 µM (retest, dose inferred, filed as 5.0), stronger effect = higher value
The panel holds about 79,000 compounds, 15% with a hit somewhere; the sample as a whole holds those more often.
parameter: growth inhibition (%)

• CC1SC2=NC3=C(c4ccccc4C3=O)C(c3ccc(Cl)cc3)N2C1=O (centres undefined) = 81
• Cc1cc(C)cc([C@H](C)N=Cc2cc(Br)ccc2O)c1 = 95
• NC1=NOC(=O)C1Cc1ccccc1 (centres undefined) = -4
• COC(=O)CCN1c2ccccc2Sc2ccccc21 = 21
• COc1ccc2c(c1)n([O-])c1cc(C#N)ccc1[n+]2=O = 97
• CCOC(=O)N/N=C/c1ccc([N+](=O)[O-])o1 = 35
• Cc1ccc(N=Nc2ccc(N)c3ccccc23)c(S(N)(=O)=O)c1 = 24
• C(=Nc1ccccc1)c1cn(Cc2ccccc2)c2ccccc12 = 99
• CC(=O)Oc1c(Br)ccc2cc(C(Br)Br)c(C(=O)c3ccccc3)nc12 = 38
